Molecular target: UniProt:Q7ZU32
Sequence (Q7ZU32 1-553): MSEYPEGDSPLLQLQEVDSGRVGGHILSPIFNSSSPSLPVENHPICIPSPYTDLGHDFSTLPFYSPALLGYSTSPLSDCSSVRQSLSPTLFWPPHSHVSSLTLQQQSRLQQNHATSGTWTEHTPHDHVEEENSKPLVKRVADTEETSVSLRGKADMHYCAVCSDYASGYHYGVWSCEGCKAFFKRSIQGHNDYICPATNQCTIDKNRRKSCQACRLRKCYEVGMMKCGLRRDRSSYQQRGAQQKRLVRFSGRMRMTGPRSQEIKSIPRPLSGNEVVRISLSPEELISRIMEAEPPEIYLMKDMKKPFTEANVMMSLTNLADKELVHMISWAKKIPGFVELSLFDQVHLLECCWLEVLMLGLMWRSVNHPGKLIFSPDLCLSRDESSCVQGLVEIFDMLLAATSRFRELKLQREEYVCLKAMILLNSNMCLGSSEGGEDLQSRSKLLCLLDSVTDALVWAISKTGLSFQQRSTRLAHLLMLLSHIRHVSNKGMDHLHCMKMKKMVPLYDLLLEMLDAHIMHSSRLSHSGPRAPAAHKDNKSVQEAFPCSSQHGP
Test: ZELH-zfERβ2 luciferase reporter gene assay
Format: cell-based
Settings: read-out: maximal efficacy
Metric: Emax

> print(dat)
                                   compound  measured.target  metric  val
1  CCC(C)(c1ccc(O)cc1)c1ccc(O)cc1 [BPB, 4-[2-(4-hydroxyphenyl)butan-2-yl] phenol]   UniProt:Q7ZU32    Emax  66%
2  Oc1ccc(C(=C(Cl)Cl)c2ccc(O)cc2)cc1 [BPC-Cl]   UniProt:Q7ZU32    Emax  61%
3  O=S(=O)(c1ccc(O)cc1)c1ccc(O)cc1 [BPS, 4-(4-hydroxyphenyl)sulfonylphenol]   UniProt:Q7ZU32    Emax  85%
4   Cc1cc(C(C)(C)c2ccc(O)c(C)c2)ccc1O [BPC]   UniProt:Q7ZU32    Emax  66%
5  CC(C)(c1cc(Cl)c(O)c(Cl)c1)c1cc(Cl)c(O)c(Cl)c1 [TCBPA, Tetrachloro-bisphenol A]   UniProt:Q7ZU32    Emax  42%

Supply reported Emax belonging to this compound: Oc1ccc(Oc2ccc(O)cc2)cc1 [4,4’-ODP, 4-(4-hydroxyphenoxy)phenol] 61%

Supply reported Emax belonging to this compound: Oc1ccc(Cc2ccc(O)cc2)cc1 [BPF, 4-[(4-hydroxyphenyl)methyl]phenol] 71%

###

System: tg(cyp19a1b:GFP) zebrafish embryos
Assay: Refined FET: developmental effects / malformations
Assay type: in vivo, zebrafish (Danio rerio)
Settings: nominal
Metric: LOEC tail/spinal malformations (mg/L)
Please give a number only; it is taken to be in mg/L.

Before answering, review these 3 worked examples.
> print(dat)
                                   compound  unit.of.measurement   val
1  Oc1ccc(Cc2ccc(O)cc2)cc1 [BPF, 4-[(4-hydroxyphenyl)methyl]phenol]                 mg/L    30
2  C=CCOc1ccc(S(=O)(=O)c2ccc(O)cc2)cc1 [BPS-MAE, 4-(4-prop-2-enoxyphenyl)sulfonylphenol]                 mg/L  33.3
3   Cc1cc(C(C)(C)c2ccc(O)c(C)c2)ccc1O [BPC]                 mg/L  8.53

Supply reported LOEC tail/spinal malformations belonging to this compound: CC(C)(c1cc(Cl)c(O)c(Cl)c1)c1cc(Cl)c(O)c(Cl)c1 [TCBPA, Tetrachloro-bisphenol A] 0.5

###

Test system: tg(cyp19a1b:GFP) zebrafish embryos
Test: Refined FET: developmental effects / malformations
Format: in vivo, zebrafish (Danio rerio)
Conditions: nominal
Metric: LOEC no/Less pigmentation (mg/L)
Please give a number only; it is taken to be in mg/L.

Supply reported LOEC no/Less pigmentation belonging to this molecule: C=CCOc1ccc(S(=O)(=O)c2ccc(O)cc2)cc1 [BPS-MAE, 4-(4-prop-2-enoxyphenyl)sulfonylphenol] 33.3

###

System: tg(cyp19a1b:GFP) zebrafish embryos
Experiment: Refined FET: developmental effects / malformations
Type: in vivo, zebrafish (Danio rerio)
Details: nominal
Metric: LOEC head malformations (mg/L)
Please give a number only; it is taken to be in mg/L.

> print(dat)
                                   compound  val
1  CC(C)(c1cc(Cl)c(O)c(Cl)c1)c1cc(Cl)c(O)c(Cl)c1 [TCBPA, Tetrachloro-bisphenol A]    1
2  CCC(C)(c1ccc(O)cc1)c1ccc(O)cc1 [BPB, 4-[2-(4-hydroxyphenyl)butan-2-yl] phenol]   10

Supply reported LOEC head malformations belonging to this compound: Oc1ccc(Oc2ccc(O)cc2)cc1 [4,4’-ODP, 4-(4-hydroxyphenoxy)phenol] 2.96

Supply reported LOEC head malformations belonging to this compound: Oc1ccc(Cc2ccc(O)cc2)cc1 [BPF, 4-[(4-hydroxyphenyl)methyl]phenol] 7.5
